Origin of measurements: a melting point compilation (Tetko et al.; mined from patent text by program, amines drawn as free bases though some values may be those of a salt)

ENDPOINT NAME: melting point

Item under review: O=C(O)CCc1cn(Cc2ccc(OCc3csc(-c4cccs4)n3)cc2)cc1-c1ccccc1 . Reported melting point?
106 to 107 °C

Also CC(C)OC(=O)N1CCC(c2nc3cc(-c4ccc(C(=O)NCCO)c(F)c4)ccc3o2)CC1 , if possible.
145 to 147 °C

Also COc1ccc2c(c1)c(CC(O)(P(=O)(O)O)P(=O)(O)O)c(C)n2C(=O)c1ccc(Cl)cc1 , if possible.
202 °C

###

ENDPOINT NAME: melting point

1) CC(C)n1cnc2c(NCc3cccnc3)nc(F)nc21 = 131 to 133 °C
2) CNC1CCC2C3CCc4cc(OC)ccc4C3CCC12C (stereo unspecified) = 136 to 137 °C
3) COc1cc(C2=Nc3ccc(N4CCCC4)cc3C(=O)C2)ccc1O = 310 to 312 °C
4) COc1ccc2[nH]c(/C=C/C=O)cc2c1 = 145 to 147 °C
5) COC(=O)C[C@@H]1C[C@@H](COc2ccc(-c3ccc(C#N)cc3)cc2)NC1=O = 138 to 140 °C

Consider the record given below.
Item under review: C=CCOCCCCOc1ccc2c(c1)Cc1cc(C(C)=O)ccc1-2 . Reported melting point?
77 °C

###

ENDPOINT NAME: melting point

1) Nc1ccccc1Nc1ccc(I)cc1 = 122 to 123 °C
2) OC(CNc1nnc2n1CCCC2)COc1cccc(CN2CCCCC2)c1 (centres undefined) = 141 to 142 °C
3) Cc1ccc2c(=O)c(-c3nnnn3C)cn(C)c2c1 = 254 to 255 °C
4) CC(C)c1ccc(S(=O)(=O)n2c(CBr)cc3cc(C(F)(F)F)ccc32)cc1 = 100 °C

Item under review: Nc1ccc(CCN2CCN(c3ccc(N)cc3)CC2)cc1 . Reported melting point?
156 to 158 °C

Also NC(=O)c1c(N)oc2ccccc2c1=O , if possible.
264 to 266 °C

Also Cc1ccccc1-c1ccc(C(=O)N2Cc3ccc(C(=O)NCc4cccc(N)c4)n3Cc3ccccc32)cc1C , if possible.
105 to 115 °C

Also CN(C)c1ccccc1CNC(=O)C1Cc2ccccc2N1S(=O)(=O)c1ccc(-c2cccc(C(F)(F)F)c2)cc1 (centres undefined) , if possible.
66 °C

Also CCOCCCNC(=O)c1ccc(S(=O)(=O)NC(=O)c2ccc(C(=O)NCC(=O)O)nc2)cc1 , if possible.
109 °C

###

ENDPOINT NAME: melting point

Below, 2 molecules whose answers are already recorded.
1) CCC(=NO)c1ccncc1 = 141 to 144 °C
2) C[C@H](NC1Cc2ccccc2C1)C(=O)O = 285 °C

Item under review: CCNCC1CN(c2c(F)cc3c(=O)c(C(=O)O)cn(C4CC4)c3c2F)CCO1 (stereo unspecified) . Reported melting point?
210 to 213 °C

Also CCOCn1nccc1C(=O)c1ccc(O)c(Cl)c1Cl , if possible.
115 to 117 °C

Also COC(=O)CCC12CCC(=O)N1C(=O)CC2 , if possible.
110 to 112 °C

Also O=Cc1c2c(cc3ccccc13)Cc1ccccc1-2 , if possible.
104 to 106 °C

Also CCC(=O)c1ccc(OC)c(C)c1C , if possible.
39 to 40 °C

Also CCOC(=O)C1=C(C)NC(c2cnc(Cl)s2)=NC1c1ccc(F)cc1Cl (stereo unspecified) , if possible.
159 to 162 °C

Also C[C@H](c1ccccc1)N(CC(=O)OC(C)(C)C)S(=O)(=O)c1ccc2c(Cl)cnc(NC(=N)N)c2c1 , if possible.
106 to 111 °C

Also COCC1CCCN1CCC1CCN(c2nc(=O)c3c(C)c(OC)c(OC)cc3[nH]2)CC1 (stereo unspecified) , if possible.
83.1 to 111 °C

Also O=C1NC(=O)C(c2cccc3ccccc23)O1 (stereo unspecified) , if possible.
188 to 189 °C

###

Overview of recorded melting point for various molecules

1) CS(=O)(=O)c1c(C(=O)O)ccc(Cl)c1Oc1ccccc1 = 231 to 235 °C
2) O=c1c(Cc2ccncc2)c(-c2ccc(Cl)cc2)[nH]c2ccccc12 = 232 to 234 °C
3) COc1ccc(CCc2cc3cc(Br)ccc3o2)cc1 = 109 to 111 °C
4) COc1ccc(C(=O)O)cc1NC(=O)C(CSC(C)=O)Cc1ccccc1 (stereo not given) = 172 to 175 °C
5) CCOC(=N)C(O)c1ccccc1 (stereo not given) = 65 to 67 °C
6) CC(=O)c1c(F)cc2c(=O)c(C(=O)O)cn3c2c1OCC3C (stereo not given) = 258 to 259 °C

Item under review: Cc1c(C)c2c(c(Br)c1NC(=O)CC(C)(C)C)C(c1ccc(C(C)C)cc1)CO2 (stereo not given) . Reported melting point?
150 to 151 °C

Also COCc1ncn2c1CN(C)C(=O)c1ccccc1-2 , if possible.
115 to 116 °C

Also O=C(CNC(=O)c1ccc([N+](=O)[O-])cc1F)OCc1ccccc1 , if possible.
104 to 106 °C

###

ENDPOINT NAME: melting point

Below, 8 molecules whose answers are already recorded.
1. OCC1(CO)Nc2cccc3cccc(c23)N1 = 158 °C
2. CCOC(=O)C1Cc2c([nH]c3ccccc23)CN1C(=S)SCc1cccs1 (centres undefined) = 205 to 207 °C
3. CCOC(=O)c1cc(O)c2cc3c(O)cc(C(=O)OCC)nc3c(N(CC)CC)c2n1 = 267 to 268 °C
4. CC(=O)OCc1cc2c3ccccc3[nH]c(=O)n2n1 = 177 to 179 °C
5. CCCCCCCC[C@H](N[C@@H](C)C(=O)N1C(=O)N(Cc2ccccc2)C[C@H]1C(=O)O)C(=O)OCC = 86 to 88 °C
6. CON=C(Nc1nc(OC)nc(OC)n1)NS(=O)(=O)c1ccccc1-c1ccccc1 = 189 to 190 °C
7. CNC(=O)CC1CN=C(c2cc3cc(Oc4ccc(S(C)(=O)=O)nc4)ccc3[nH]2)S1 (centres undefined) = 178 to 180 °C
8. O=C1c2cc3nnn(Cc4nc5ccccc5s4)c(=O)c3cc2OC2CCCN12 (centres undefined) = 224 to 227 °C

Item under review: CCCCCCCCCCC#Cc1cccc([C@H]2O[C@@H]2CO)c1 . Reported melting point?
41 to 42 °C

###

If the reported melting point equals or exceeds 90 °C, assign class 1. If not, assign class 0.

1. O=C(O)c1ccn2c1CSC2c1cccnc1 (single isomer, unassigned; (+)) = class 1
2. CCC[C@H]1CC[C@H]([C@H]2CC[C@H](c3cc(F)c(C[C@H](C)c4ccccc4)c(F)c3)CC2)CC1 = class 1
3. Clc1cccc(NNc2cccc(Cl)c2)c1 = class 1

Reported melting point reaches at least 90 °C for C=CCN1CCN(C(C#CSc2ccccc2)=Nc2ccc(OC)cc2)CC1 ?
class 0

Also CC(O)CSC(=S)Nc1ccccn1 (stereo unspecified) , if possible.
class 0

###

Overview of recorded melting point for various molecules

Below, 4 molecules whose answers are already recorded.
1) CC(C)NC(=O)c1n[nH]cc1NC(=O)c1ccccn1 = 254 to 255 °C
2) O=C(O)c1cccc(C(=O)c2ccc(F)cc2)c1 = 180 °C
3) O=C1NC(=O)c2c1c(-c1ccccc1)cc1[nH]c3ccc(OP(=O)(O)O)cc3c21 = 285 to 295 °C
4) CS(=O)(=O)c1ccc(-c2cc(CO[N+](=O)[O-])nn2C2CCCCCC2)cc1 = 119 to 120 °C

Item under review: Cc1ccc(-c2ccc3c(c2)C=C(C(=O)Nc2ccc(Cc4ccccn4)cc2)CCO3)cc1 . Reported melting point?
189 to 190 °C

###

Overview of recorded melting point for various molecules

Below, 10 molecules whose answers are already recorded.
1) CCOC(=O)CC[C@H](NC(=O)c1ccc(C(=Cc2cnc3nc(NC(=O)C(C)(C)C)nc(O)c3c2)COC2CCCCO2)cc1)C(=O)OCC (some centres undefined) = 273 to 275 °C
2) CC(C)(C)Nc1c(Nc2ccc3ncccc3c2)c(=O)c1=O = 234 to 236 °C
3) NC(=O)c1c(Cl)cc(Cl)c(OCCCC(=O)O)c1Cl = 165 to 166 °C
4) CC(C)n1c(=O)n(C)c(=O)c2cc(Cc3ccccc3)sc21 = 91 to 93 °C
5) Cc1c(C(=O)Nc2cc(Cl)c(N3CCC(N4CCOCC4)CC3)c(Cl)c2)cnn1-c1ccc(Cl)cc1 = 246 to 248 °C
6) COc1ccc(-c2cc3ccccc3n2C(C)=O)cc1 = 68 to 71 °C
7) O=C(c1ccc(-c2cnc3c(c2)N(Cc2c(F)ccc(F)c2Cl)CCN3)cc1)N1CCC(N2CCCC2)CC1 = 93 to 95 °C
8) CCOC(=O)COc1c(C)cc(C)c2c1CCC2=O = 75 to 77 °C
9) O=c1c2c(Cc3ccc(C(F)(F)F)cc3)n[nH]c2c2cccnc2n1-c1ccccc1 = 216 to 219 °C
10) C=Cc1cc2c(cc1Cl)C=C(C(=O)O)C(C(F)(F)F)O2 (centres undefined) = > 200 °C

Item under review: CC(C)(C)OC(=O)N1CCn2c(C(=O)N[C@@H](Cc3ccccc3)[C@H](O)CNC3(c4cccc(C(F)(F)F)c4)CC3)cc(C(=O)O)c2C1 . Reported melting point?
134 °C

Also O=C(Nc1ccc2nc(CN3CCCC3)ccc2c1)c1ccc(-c2ccc(F)cc2)cc1 , if possible.
190 to 193 °C

Also CC(C)CSc1nc(N)nc2c1ncn2C1C=CC(CO)C1 (centres undefined) , if possible.
127 to 129 °C

Also COC(CN(c1nc2ccccc2o1)[C@H]1c2cc(C#N)ccc2OC(C)(C)[C@@H]1O)OC , if possible.
66 °C

Also CN(C)S(=O)(=O)c1cc(-c2csc(=Nc3ccc(O)cc3)n2C)ccc1Cl , if possible.
188 to 190 °C

Also COC1=CC(C=C(C#N)C(=O)O)CC(OC)=C1OC (centres undefined) , if possible.
102 to 105 °C

Also CC(O)(CCN1CCOCC1)c1ccc(-c2ccc(Cl)cc2)cc1 (centres undefined) , if possible.
106 to 108 °C

Also CCCn1c(COCC)nc2c(N)nc3ccc(OCCNC(=O)N4CCOCC4)cc3c21 , if possible.
203 to 208 °C

Also CC(=O)Nc1cc(C(F)(F)F)ccc1S(=O)(=O)CC#N , if possible.
146 to 147 °C
